Data provenance is ChEMBL document CHEMBL4673175.

assay: Selectivity index, ratio of EC50 for cytotoxicity against […] cells to EC50 for antiplasmodial activity against Plasmodium falciparum FCR-3 ATCC 30932 infected in human erythrocytes; format: toxicity, cell-based; conditions: mouse, read-out: Ratio EC50
Quantity Kind: selectivity ratio

In the examples that follow, each entry is paired with its recorded selectivity ratio.
In: Given the compound C=CCn1c(=O)/c(=C2\Sc3ccccc3N2C)s/c1=C\c1cccc[n+]1C , what is its reported selectivity ratio?
Out: > 100

In: Cool, now CCn1c(=O)/c(=C2\Sc3ccccc3N2C)s/c1=C/c1cc[n+](CCO)cc1
Out: > 100

In: Cool, now CCn1c(=O)/c(=C2\Sc3ccccc3N2C)s/c1=C/c1cc[n+](C)c(-c2ccccc2)c1
Out: > 100

In: Cool, now CCn1c(=O)/c(=C2\Sc3ccccc3N2C)s/c1=C\c1cc[n+](C)cc1
Out: > 100

Continuing:
In: Given the compound CCn1c(=O)/c(=C2\Sc3ccccc3N2C)s/c1=C\c1cccc[n+]1CCCCC(=O)O , what is its reported selectivity ratio?
Out: > 100
